Recorded melting point for the following compounds
assay_endpoint: melting point

compound="CCc1nc2ccccc2c(=O)n1CCCCNc1ccc(SC(C)(C)C(=O)O)cc1 [Example 16]" measured_result="58 to 62 °C"
compound="Cc1nc2ccccc2c(=O)n1CCOc1ccc(SC(C)(C)C(=O)O)cc1 [Example 22]" measured_result="188 to 190 °C"
compound="CCCc1nn(C)c2c(=O)n(CCOc3ccc(SC(C)(C)C(=O)OCC)cc3)c(C)nc12 [Example 31]" measured_result="106 to 108 °C"
compound="Cc1nc2ccccc2c(=O)n1CCNc1ccc(SC(C)(C)C(=O)O)cc1 [Example 2]" measured_result="226 to 228 °C"
compound="CCCc1nn(C)c2c(=O)n(CCNc3ccc(SC(C)(C)C(=O)O)cc3)c(CC)nc12 [Example 42]" measured_result="187 to 189 °C"
compound="CCc1nc2ccccc2c(=O)n1CCCOc1ccc(SC(C)(C)C(=O)O)cc1 [Example 24]" measured_result="156 to 158 °C"
compound="CCOC(=O)C(C)(C)Sc1ccc(OCCn2c(CC)nc3ccccc3c2=O)cc1 [Example 33]" measured_result="120 to 122 °C"
compound="CCCc1nc2ccccc2c(=O)n1CCCCNc1ccc(SC(C)(C)C(=O)O)cc1 [Example 18]" measured_result="100 to 104 °C"
compound="CCCc1nn(C)c2c(=O)n(CCOc3ccc(OC4(C(=O)O)CCC4)cc3)c(C)nc12 [Example 91]" measured_result="188 to 190 °C"
compound="CCCc1nn(C)c2c(=O)n(CCCNc3ccc(OC(C)(C)C(=O)O)cc3)c(C)nc12 [Example 68]" measured_result="104 to 106 °C"
compound="CCCc1nn(C)c2c(=O)n(CCOc3ccc(OC4(C(=O)OCC)CCC4)cc3)c(C)nc12 [Example 90]" measured_result="132 to 134 °C"
compound="CCCc1nn(C)c2c(=O)n(CCOc3cc(O[C@@](C)(CC)C(=O)O)ccc3Cl)c(C)nc12 [Example 106]" measured_result="99 to 100 °C"
compound="CCCc1nn(C)c2c(=O)n(CCOc3ccc(SC(C)(C)C(=O)O)cc3)c(CC)nc12 [Example 44]" measured_result="104 to 106 °C"
compound="CCOC(=O)C(C)(C)Sc1ccc(OCCn2c(C)nc3ccccc3c2=O)cc1 [Example 21]" measured_result="114 to 116 °C"
compound="CCCc1nn(C)c2c(=O)n(CCNc3ccc(SC(C)(C)C(=O)OCC)cc3)c(CC)nc12 [Example 41]" measured_result="105 to 107 °C"
compound="CCCc1nn(C)c2c(=O)n(CCCOc3ccc(SC(C)(C)C(=O)OCC)cc3)c(C)nc12 [Example 35]" measured_result="52 to 54 °C"
compound="Cc1nc2ccccc2c(=O)n1CCCCNc1ccc(SC(C)(C)C(=O)O)cc1 [Example 14]" measured_result="100 to 102 °C"
compound="CCCc1nn(C)c2c(=O)n(CCOc3ccc(SC(C)(C)C(=O)O)cc3)c(C)nc12 [Example 32]" measured_result="182 to 184 °C"
compound="CCCc1nn(C)c2c(=O)n(CCOc3ccc(OC(C)(C)C(=O)OCC)cc3)c(C)nc12 [Example 59]" measured_result="98 to 100 °C"
compound="CCCc1nn(C)c2c(=O)n(CCCc3cccc(OC(C)(CC)C(=O)O)c3)c(C)nc12 (centres unmarked) [Example 87]" measured_result="136 to 138 °C"
